// provenance: patent US11111245B2

biological target: CDK9/T1 (Homo sapiens, UniProt P50750); experiment: ADP Glo Kinase assay CDK9/T1; type: biochemical; settings: CDK9T1; read-out: CDK inhibition, Ki (μM) CDK9T1
Sequence (P50750 whole entry): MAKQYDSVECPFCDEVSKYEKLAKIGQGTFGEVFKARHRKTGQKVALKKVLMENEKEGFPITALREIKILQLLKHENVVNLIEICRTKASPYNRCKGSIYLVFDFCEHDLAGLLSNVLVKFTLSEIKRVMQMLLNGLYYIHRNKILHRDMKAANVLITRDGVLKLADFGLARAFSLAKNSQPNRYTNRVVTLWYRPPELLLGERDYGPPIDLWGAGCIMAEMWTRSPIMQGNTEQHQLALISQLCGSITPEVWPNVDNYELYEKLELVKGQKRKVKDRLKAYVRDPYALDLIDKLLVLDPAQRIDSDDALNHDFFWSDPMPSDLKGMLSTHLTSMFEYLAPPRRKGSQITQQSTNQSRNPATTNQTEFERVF
Sequence (O60563 whole entry partner): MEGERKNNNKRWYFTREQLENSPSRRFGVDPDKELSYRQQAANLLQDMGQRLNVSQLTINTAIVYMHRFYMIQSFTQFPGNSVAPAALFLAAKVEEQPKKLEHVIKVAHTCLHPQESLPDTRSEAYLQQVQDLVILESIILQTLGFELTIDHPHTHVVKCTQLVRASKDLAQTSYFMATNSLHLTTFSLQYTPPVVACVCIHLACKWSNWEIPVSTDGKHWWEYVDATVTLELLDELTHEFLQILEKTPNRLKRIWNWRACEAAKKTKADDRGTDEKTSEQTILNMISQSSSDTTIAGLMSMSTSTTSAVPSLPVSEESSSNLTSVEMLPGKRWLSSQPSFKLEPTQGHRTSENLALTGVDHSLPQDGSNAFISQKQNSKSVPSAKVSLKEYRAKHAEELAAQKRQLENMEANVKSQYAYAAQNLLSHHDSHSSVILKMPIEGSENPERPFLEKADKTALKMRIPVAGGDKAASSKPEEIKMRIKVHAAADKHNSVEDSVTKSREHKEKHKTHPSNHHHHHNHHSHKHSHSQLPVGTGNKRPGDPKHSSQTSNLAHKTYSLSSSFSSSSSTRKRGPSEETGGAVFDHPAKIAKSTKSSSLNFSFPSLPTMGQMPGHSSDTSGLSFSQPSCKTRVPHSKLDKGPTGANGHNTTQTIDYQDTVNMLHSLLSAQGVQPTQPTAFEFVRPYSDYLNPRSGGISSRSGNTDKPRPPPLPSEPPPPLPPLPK
MEASURE: log10 of Ki (log10 of the value in µM)

>>> df
                              smiles_record      measure  readout_value
0  CS(=O)(=O)N1CCC(Nc2ncc(F)c(-c3cnc4ccccn34)n2)CC1  log10 of Ki          -0.85
1  Fc1cnc(NC2CCN(CC3CC3)CC2)nc1-c1cnc2ccccn12  log10 of Ki          -1.02
2  Cc1cnc(N[C@H]2CC[C@H](N)CC2)nc1-c1cnc2ccc(-c3ccccc3)cn12  log10 of Ki          -2.10
3  Fc1cnc(N[C@H]2CC[C@H](N3CCCC3)CC2)nc1-c1cnc2ccc(-c3ccccc3)cn12  log10 of Ki          -2.52
4  Cc1cnc(N[C@H]2CN3CCC2CC3)nc1-c1cnc2ccc(Nc3cncnc3)cn12  log10 of Ki          -0.31
5  Cc1cnc(N2CCC3(CCNC3=O)CC2)nc1-c1cnc2ccc(-c3ccccc3)cn12  log10 of Ki           0.46
6  Cc1cnc(N[C@H]2CC[C@H](N)CC2)nc1-c1cnc2ccc(Nc3cccnc3)cn12  log10 of Ki          -2.30
7  Cc1cnc(N[C@H]2CC[C@H](O)CC2)nc1-c1cnc2ccc(-c3ccccc3)cn12  log10 of Ki          -0.73
8  Cc1cnc(N[C@H]2CC[C@H](N)CC2)nc1-c1cnc2cc(Nc3cccnc3)ccn12  log10 of Ki          -1.16
